Test system: UO-31 renal
assayProtocol: NCI-60 one-dose screen, 48 h
experimentalConditions: 10 µM unless noted
Compounds without any hit were thinned out: in the full panel of roughly 83,000, 20% have a hit. Calls of active or inactive are those of the source. The calls were made as follows: active = growth percent below 10; inactive = the rest.
Respond only with the outcome that fits, drawn from active, inactive

| compound | targetEntity | qualitativeLabel |
| --- | --- | --- |
| NC(=O)c1c(NC(=O)COC(=O)Cc2ccccc2F)sc2c1CCC2 | UO-31 renal | inactive |

Dear colleague, could you share the recorded outcome for CCN(CC)CC(C)Nc1ccc(C)c2sc3ccccc3c(=O)c12 (centres undefined) when you have a moment?
inactive

Field: outcome | Entry: `c1ccc(-c2nc(N3CCCNCC3)c3nc(-c4ccccc4)oc3n2)cc1`
inactive

Look up the recorded call for `Cn1cc(-c2nnc(-c3cn(C)c4ncc(Br)cc34)s2)c2cc(Br)ccc21` in this test.
inactive

Please indicate how the test categorized `CC(C)C1=NOC(=O)C1=Cc1cn(-c2ccccc2)nc1-c1ccc(Cl)cc1` .
inactive

Per the records of this test, what outcome belongs to `C=C(CN=[N+]=[N-])[C@@H]1CC[C@]2(C)[C@H](CC[C@@H]3[C@H]4[C@H]5OC(=O)[C@@]4(CCC5(C)C)CC[C@]32C)[C@@]1(C)CCC#N` ?
inactive

In this assay, the call recorded for `Cn1cc(-c2noc(-c3cn(C)c4ncccc34)n2)c2cc(Cl)ccc21` was what?
inactive

Which outcome was assigned to `Cc1ccccc1-n1nnc(C(=O)Nc2nc3ccc(F)cc3s2)c1C` in this test?
inactive

Look up the recorded call for `Nc1nc(Cl)c2ncn(Cc3cc4c(cc3I)OCO4)c2n1` in this test.
inactive

I would be grateful if you could indicate the recorded call for `Cc1ccc2c(c1)/C(=N\N=C/c1cn(C(C)C)c3ccccc13)C(=O)N2` .
inactive

Test call for this compound, please: `C#C[C@]1(O)CC[C@H]2[C@@H]3CC=C4c5nc(Nc6ccccn6)sc5CC[C@]4(C)[C@H]3CC[C@@]21C`
active

For this compound, state the assay outcome: CCCCC1COc2cccc3c2N1C=C/C3=C\C(=O)n1ccc2ccccc21 (centres undefined)
inactive

Please let me know the test result on file for `CCOC(=O)c1cc(C#N)n2ncc3ccccc3c12` .
inactive

Recorded call for `O=C(NNc1ccc(-c2ccccc2)nn1)c1ccccc1` ?
inactive

I'd appreciate the recorded outcome for `COc1ccc(C(=O)CSc2nccc(Nc3ccc(C(=O)O)cc3)n2)cc1` from this test.
inactive

Which outcome did this test record for the compound `Cc1ccc(NC(=O)N[C@@H](Cc2cc(F)cc(F)c2)C(=O)N[C@@H]2C(=O)N3CCC[C@H]3C(=O)N3CCOC[C@H]3C(=O)N[C@@H](C)C(=O)N3C[C@H](C)C[C@H]3C(=O)O[C@H]2C)cc1` ?
inactive

What classification did NC(=O)CC1C=CCC1 (centres undefined) end up with in this test?
inactive

Would you mind telling me which call this test gave `CC(=O)Nc1ccc2nc3ccc(NC(C)=O)cc3[n+](-c3ccccc3)c2c1` ?
inactive
